tested on: perfused rabbit ear; assay: Blood-flow change in perfused isolated rabbit ear, vaso-dilator activity (Ringer-Norfenefrin solution); conditions: 10^-7 g/ml
Structures can show the parent of a compound that is named as a salt.
Recorded Metric: Relative change in blood flow, vaso-dilator activity

Compound	Measured Value
CCCCCC(C)NCc1c(C)cc(C)cc1C (single isomer, unassigned) [compound 3]	+3
CCCCCC(C)NCc1c(C)cc(C)cc1C (centres unmarked) [Serial No. 2, hydrochloride]	+3
CCCCCC(C)NCc1c(C)cc(C)cc1C (single isomer, unassigned) [compound 4]	+4
CCCCCCC(C)NCc1c(C)cc(C)cc1C (centres unmarked)	+7
CCCCC(C)NCc1c(C)cc(C)cc1C (centres unmarked)	+3

Measured values drawn from patent US4312861A for this set.
